experiment: Stability in human plasma assessed as compound remaining after 60 mins by LC-MS/MS analysis; assay type: ADME, cell-free; settings: read-out: Stability
Items are presented alongside their recorded remaining at 1 h.
The answer should read as a number with its unit following.

Can you look up the measured remaining at 1 h of `NCc1ccc(C(=O)Nc2ccncc2F)cc1-c1cccc(C(=O)Nc2ccc(CC(=O)OC3CCCC3)cc2)c1` for me?
2%

Can you look up the measured remaining at 1 h of `COCCOC(=O)c1ccc(F)c(C(=O)Nc2cccc(-c3cc(C(=O)Nc4ccncc4F)ccc3CN)c2)c1` for me?
0%

Can you look up the measured remaining at 1 h of `COC(=O)c1ccc(F)c(C(=O)Nc2cccc(-c3cc(C(=O)Nc4ccncc4F)ccc3CN)c2)c1` for me?
23%

Can you look up the measured remaining at 1 h of `COC(=O)c1ccc(F)c(NC(=O)c2cccc(-c3cc(C(=O)Nc4ccncc4F)ccc3CN)c2)c1` for me?
13%

Can you look up the measured remaining at 1 h of `NCc1ccc(C(=O)Nc2ccncc2F)cc1-c1cccc(C(=O)Nc2ccc(CC(=O)OC3CCOCC3)cc2)c1` for me?
0%

Can you look up the measured remaining at 1 h of `CC[C@H](C)OC(=O)Cc1ccc(NC(=O)c2cccc(-c3cc(C(=O)Nc4ccncc4F)ccc3CN)c2)cc1` for me?
42%
